# system_under_test: Homeobox protein Hox-A13 (Mus musculus) (UniProt Q62424)
# Sequence (Q62424 whole entry, looked up): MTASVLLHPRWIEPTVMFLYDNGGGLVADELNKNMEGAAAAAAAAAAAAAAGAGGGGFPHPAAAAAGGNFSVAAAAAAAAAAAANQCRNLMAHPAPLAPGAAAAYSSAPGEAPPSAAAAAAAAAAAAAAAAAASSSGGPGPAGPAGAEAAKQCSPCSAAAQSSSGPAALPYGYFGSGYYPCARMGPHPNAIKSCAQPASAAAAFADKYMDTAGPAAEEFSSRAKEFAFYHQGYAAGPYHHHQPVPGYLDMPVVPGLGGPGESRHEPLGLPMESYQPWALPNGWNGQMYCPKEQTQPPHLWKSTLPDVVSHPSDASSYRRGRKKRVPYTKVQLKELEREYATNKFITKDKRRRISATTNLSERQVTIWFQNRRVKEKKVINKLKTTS
# experiment_description: inhibitors of HoxA13-DNA binding, primary screen, biochemical, fluorescence polarization, labeled oligonucleotide (AID 1185)
# test_parameters: 15 min, higher = more signal, called active from +8 up or from −8 down
property_name: z-score
Lab note: write the figure by itself, no unit.

Could you tell me which z-score is on file for COC(=O)[C@H](C)NC(=O)CCC1CC(OC(=O)NCc2ccc3c(c2)OCO3)CC2(CCCC(COC(=O)NCCOc3ccccc3)O2)O1 (some centres not stated) ?
-2.45

Queued: `[N-]=[N+]=NCc1ccccc1[C@@H]1OC(c2ccc(OCCCO)cc2)=N[C@]1(Cc1ccccc1)C(=O)N1CCOCC1`
-4.99

Queued: `COC(=O)c1c(CC[C@@H](CO)NC(=O)N[C@H](Cc2ccccc2)Cn2cc(-c3ccccc3N)nn2)oc(C(C)=O)c1C(=O)OC`
-5.26

Queued: `Cn1c(=O)n2n(c1=O)[C@H]1[C@H](O)[C@@H]3O[C@@H]3C(=NOC[C@@H](O)COCc3ccco3)[C@H]1CC2`
0.445

Queued: `COc1cccc([C@H]2Oc3ccc(OC)cc3C(=NO[C@H](C)c3cn([C@@H]4COC[C@H]4O)nn3)[C@@H]2O)c1`
-2.61

Queued: COC(=O)CC1OC1[C@H](C)[C@@H](OC)C(C)C (some centres not stated)
-4.65

Queued: `CC(C)C[C@@H]1NC(=O)[C@H]2C[C@@H](C(=O)NCCCCCCN(C)C)[C@@H](c3cccc(OCCO)c3)N2C1=O`
-4

Queued: `COC(=O)CC=C[C@@H](C)[C@@H](C=NO[C@H](C)c1cn([C@@H]2COC[C@H]2O)nn1)OC`
0.0624

Queued: `COC(=O)CC=C[C@H](C)[C@H](CO)NS(=O)(=O)c1ccc(C)cc1`
-1.56

Queued: `COc1ccc(O[C@H]2C=C[C@@H](c3ccccc3)O[C@@H]2COC(=O)CCC(C)=NO[C@@H](C)c2cc(-c3c(C)cc(C)cc3C)no2)cc1`
-0.508

Queued: `Cc1ccc(S[C@]2(C(=O)NCC(F)(F)F)CC(=O)N(Cc3ccccc3Cl)[C@@H]2c2ccc(CO)cc2I)cc1`
-2.61

Queued: CCCCCN1CC=CC23O[C@@H]4C=CCOC(=O)[C@@H]4[C@H]2C(=O)N(CCCCCCO)[C@@H]3C1=O (some centres not stated)
-4.08

----------
Provide the recorded z-score for the entries that follow.
# experiment_description: basal RPMI8226 mitochondrial membrane potential changes, profiling panel, cell-based, JC-1 fluorescence, 24 h, 100 nL compound (AID 1169); note: test concentration not given here
# test_parameters: RPMI8226 myeloma, JC-1 mitochondrial potential fluorescence, higher = more signal

Could you tell me which z-score is on file for `CC(C)CN1CCc2nc(-c3ccccc3)c3c(c2CC1)CO[C@@H](C)C3` ?
0.0637

Queued: O=C1CCCC2OC12C(O)CCc1ccccc1 (stereo unspecified)
-0.278

Queued: `COCC(=C=CC[C@@H](O)c1ccccc1OCCO)CCO`
-0.631

Queued: `C[C@@H]1C=CCC(=O)OC[C@H](C)C(=O)N[C@@H](C)C(=O)OC1`
-0.0436

Queued: `CC(CCC(=O)OC[C@H]1O[C@H](C#Cc2ccccc2)C=C[C@@H]1Oc1ccc(C)cc1)=NO[C@@H](C)c1cn([C@H](CO)Cc2ccccc2)nn1`
0.496

Queued: CCN1C(=O)[C@H]2[C@H]3[C@H](O)[C@H](O)CC(=NOC(C)CN4CCCCc5nc(C)c(C)cc54)[C@@H]3CC[C@H]2C1=O (stereo partly specified)
-0.232

Queued: `O=C1O[C@@H](c2ccccc2)[C@@H](c2ccccc2)N2[C@@H](c3ccc(OCCO)cc3)[C@]3(C(=O)Nc4ccc(C#CCCO)cc43)[C@@H](C(=O)N3CCCCCCC3)[C@H]12`
-0.974

Queued: `COC(=O)CC=C[C@@H](C)[C@@H](C=NO[C@H](C)c1cn([C@@H]2COC[C@H]2O)nn1)OC`
0.146

Queued: COC(=O)C1(C)C=C2C(=C(c3ccccc3)C(=O)C2C)CN1 (stereo unspecified)
0.2

Queued: `O=C1[C@H]2[C@H]3[C@H](O)[C@H](O)CC(=NOCc4ccccc4)[C@H]3CC[C@H]2C(=O)N1C[C@@H]1CCCO1`
-0.669

Queued: `CCOC(=O)CCN1C(=O)[C@H]2[C@H]3[C@H](O)[C@H](O)CC(=NOC[C@@H](O)COCc4ccco4)[C@H]3CC[C@H]2C1=O`
-0.126

Queued: `C#CCCCON=C1C[C@@H](O)[C@@H](O)[C@@H]2[C@@H]3C(=O)N(c4cccc(Oc5ccccc5)c4)C(=O)[C@@H]3CC[C@@H]12`
-0.56

Queued: `COc1ccc([Si](C)(C)[C@H]2[C@H](CC(=O)N3CCC[C@H]3CO)O[C@@]3(C(=O)N(Cc4cccc(N5C(=O)COc6ccccc65)c4)c4ccccc43)[C@@H]2C)cc1`
-0.938

Queued: `COC(=O)[C@@]1(Cc2ccc(F)cc2)[C@@H]2C(=CC(=O)[C@H]2CC(=O)C(=O)N(C)C)CN1C(=O)c1ccccc1`
-0.817

Queued: `CCOC(=O)NN=C1C[C@@H](O)[C@@H](O)[C@@H]2[C@@H]3C(=O)N(C[C@@H]4CCCO4)C(=O)[C@@H]3CC[C@@H]12`
0.248

Queued: Cn1cccc1C(O)C1C=CC2C(=O)NC(=O)C2N1Nc1ccccn1 (stereo unspecified)
-1.11

Queued: `CC(C)[C@@H](OCc1ccccc1)[C@H](C)C=NO[C@H](C)c1cn([C@H](CO)Cc2ccccc2)nn1`
0.339

Queued: COC(=O)[C@@H]1CC[C@H](C)[C@@H](c2ccc(C)cc2)N1C(=O)c1ccc(C=NOC(C)CN2CCCCc3nc(C)c(C)cc32)cc1 (stereo partly specified)
-1.16

Queued: `C[C@H](c1ccccc1)N1C(=O)[C@H]2[C@H]3[C@H](O)[C@H](O)CC(=O)[C@@H]3CC[C@H]2C1=O`
-0.0521

Queued: COc1ccc(-c2ccc3c(n2)CCCN3CC(O)CN2CCCc3nc(C)c(C)cc32)cc1 (stereo unspecified)
-0.108

Queued: `COC(=O)CC=C[C@@H](C)[C@@H](C=NO[C@@H](C)c1cc(-c2c(C)cc(C)cc2C)no1)OC`
-0.549

----------
# experiment_description: basal RPMI8226 viability, no added stimulus, profiling panel, cell-based, calcein-AM fluorescence, 48 h, PK04 Diversity Set (AID 1166);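 note: cells grown under basal conditions without added stimulus; test concentration not given here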
# test_parameters: RPMI8226 myeloma viability, higher = more signal
Classify by z-score. Ranges: low (below -0.8), intermediate (-0.8 to below 0.1), high (0.1 or more)

Class for CN(C)c1ccc(C(O)C2C=CC3C(=O)N(c4ccccc4)C(=O)C3N2Nc2ccccc2F)cc1 (stereo not drawn) ?
low

Queued: `Cc1cc2c(c(=O)o1)[C@H](O)[C@H]1O[C@H]1C2=O`
low

Queued: `O=C1O[C@@H](c2ccccc2)[C@@H](c2ccccc2)N2[C@@H](c3ccc(OCCO)cc3)[C@]3(C(=O)Nc4ccc(C#CCCO)cc43)[C@@H](C(=O)N3CCCCCCC3)[C@H]12`
high

Queued: `O=C1[C@H]2[C@H]3[C@H](O)[C@H](O)CC(=NO[C@@H]4O[C@H](CO)[C@@H](O)[C@H](O)[C@H]4O)[C@@H]3CC[C@H]2C(=O)N1Cc1ccccc1`
high

Queued: `CCc1cccc(NC(=O)O[C@H]2[C@H](OC(=O)Nc3ccc4c(c3)OCO4)[C@@H](OC(=O)Nc3ccc4c(c3)OCO4)[C@@H](OC)O[C@@H]2CO)c1`
low

Queued: `O=C1C2=CC[C@H]3C(=O)N(Cc4ccc5c(c4)OCO5)C(=O)[C@H]3[C@H]2[C@H](O)[C@@H]2O[C@H]12`
intermediate

Queued: `COC(=O)[C@H]1COC(c2ccc(OCCCO)cc2)=N1`
intermediate

Queued: `C#CCCCON=C1C[C@@H](O)[C@@H](O)[C@@H]2[C@@H]3C(=O)N(Cc4ccccc4)C(=O)[C@@H]3CC[C@H]12`
high

Queued: CC1CC/C=C\[C@H]2OC34C=CCN(Cn5nnc6ccccc65)C(=O)[C@H]3N(CCO)C(=O)[C@@H]4C2C(=O)O1 (stereo partly drawn)
high

Queued: `CCOC(=O)NN=C1C[C@@H](O)[C@@H](O)[C@@H]2[C@@H]3C(=O)N(C[C@@H]4CCCO4)C(=O)[C@@H]3CC[C@@H]12`
high

Queued: `C=C(/C(=C/C[C@@H](OC(=O)c1ccncc1)c1ccc(OCCO)cc1)c1cnc2ccccc2c1)C(C)C`
high

Queued: `O=C1[C@H]2[C@H]3[C@H](O)[C@H](O)CC(=NO[C@@H]4O[C@H](CO)[C@@H](O)[C@H](O)[C@H]4O)[C@H]3CC[C@H]2C(=O)N1Cc1ccc2c(c1)OCO2`
intermediate

Queued: Cc1ccc(C2CC=C(C(=O)O)CN2S(=O)(=O)c2ccc(C)cc2)cc1 (stereo not drawn)
low

Queued: `COC(=O)[C@@]1(Cc2ccc(F)cc2)[C@@H]2C(=CC(=O)[C@H]2CC(=O)C(=O)N(C)C)CN1C(=O)c1ccccc1`
low

Queued: `Cc1ccc(S[C@]2(C(=O)NCC(F)(F)F)CC(=O)N(Cc3ccccc3Cl)[C@@H]2c2ccc(CO)cc2I)cc1`
low

Queued: `C[C@@H](c1ccccc1)N1C(=O)[C@H]2[C@H]3[C@H](O)[C@H](O)CC(=NNC(=O)OCc4ccccc4)[C@H]3CC[C@H]2C1=O`
high

Queued: `C=C(CCCC)C(=O)CC[C@@H](OC(C)=O)c1cccc(OCCO)c1`
low

Queued: `NCCCCCNC(=O)[C@@H]1C[C@@H]2C(=O)N3CCC[C@H]3C(=O)N2[C@@H]1c1cccc(OCCO)c1`
intermediate

Queued: COCCNC(=O)OCC1CCCC2(CC(OC(=O)NCCc3ccc(F)cc3)CC(CCC(=O)N[C@@H](C)C(=O)OC)O2)O1 (stereo partly drawn)
high

Queued: `O=C(NN=C1C[C@@H](O)[C@@H](O)[C@@H]2[C@@H]3C(=O)N(c4cccc(Oc5ccccc5)c4)C(=O)[C@@H]3CC[C@H]12)OCc1ccccc1`
intermediate

Queued: `C[C@H](c1ccccc1)N1C(=O)[C@H]2[C@H]3[C@H](O)[C@H](O)CC(=O)[C@@H]3CC[C@H]2C1=O`
high

Queued: COc1ccc(O[C@H]2C=C[C@@H](c3ccccc3)O[C@@H]2COC(=O)CCC(C)=NOC(C)CN2CCCCc3nc(C)c(C)cc32)cc1 (stereo partly drawn)
intermediate

// provenance: PubChem BioAssay
